Origin of measurements: patent US20210115000A1

experiment: Spectroscopic analysis: absorbance, emission and quantum yield of Nile Red derivatives; format: physicochemical; conditions: in DMSO
assay readout: Max Abs (nm)

>>> value("CCN(CC)c1ccc2nc3c4ccccc4c(=O)cc-3oc2c1")
550
>>> value("CCN(CC)c1ccc2nc3c4cc(-c5ccc(N)cc5)ccc4c(=O)cc-3oc2c1")
555
>>> value("CCN(CC)c1ccc2nc3c4cc(C#Cc5ccc(C=O)c(S(C)(=O)=O)c5)ccc4c(=O)cc-3oc2c1")
570
>>> value("CCN(CC)c1ccc2nc3c4cc(C#Cc5cccc(N)c5)ccc4c(=O)cc-3oc2c1")
565
>>> value("CCN(CC)c1ccc2nc3c4cc(C#Cc5cc(C=O)ccc5OC)ccc4c(=O)cc-3oc2c1")
565
>>> value("CCN(CC)c1ccc2nc3c4cc(-c5ccc(C#N)cc5)ccc4c(=O)cc-3oc2c1")
560
>>> value("CCN(CC)c1ccc2nc3c4ccc(-c5ccc(N)cc5)cc4c(=O)cc-3oc2c1")
555
>>> value("CCN(CC)c1ccc2nc3c4ccc(-c5ccc(C#N)cc5)cc4c(=O)cc-3oc2c1")
560
>>> value("CCN(CC)c1ccc2nc3c4cc(C#Cc5cccc(C=O)c5)ccc4c(=O)cc-3oc2c1")
565
